System: mammary carcinoma cell line MCF-7
Experiment: MTS cell viability assay, mammary carcinoma MCF-7 cells
Format: cell-based, human
Conditions: MCF7 + Zn-rhAFP 1.4 μM (Zn:rhAFP 4:1) + drug, 48 h
Each entry below carries its recorded Coefficient for drug interaction (CDI).
Give the value as a plain number.

[[record]]
compound = "CC(=O)O[C@H]1C(=O)[C@@]2(C)[C@H]([C@H](OC(=O)c3ccccc3)[C@]3(O)C[C@H](OC(=O)[C@H](O)[C@@H](NC(=O)c4ccccc4)c4ccccc4)C(C)=C1C3(C)C)[C@]1(OC(C)=O)CO[C@@H]1C[C@@H]2O [Ptx, paclitaxel]"
assay_result = 0.80

[[record]]
compound = "CC(C)=CCC/C(C)=C/C=C/C(C)=C/C=C/C(C)=C/C=C/C=C(C)/C=C/C=C(C)/C=C/C=C(\\C)CCC=C(C)C [Lycopene, lycopene]"
assay_result = 0.71

[[record]]
compound = "COc1cc([C@@H]2c3cc4c(cc3[C@@H](O[C@@H]3O[C@@H]5CO[C@@H](C)O[C@H]5[C@H](O)[C@H]3O)[C@H]3COC(=O)[C@H]23)OCO4)cc(OC)c1O [Etoposide, etoposide]"
assay_result = 0.86


Please examine the following record next.
// recorded Coefficient for drug interaction (CDI) for COc1cc(/C=C/C(=O)CC(=O)/C=C/c2ccc(O)c(OC)c2)ccc1O [Curcumin, curcumin] : 0.88
